test system: SK-MEL-2; assay: NCI tumour cell line growth inhibition, 48 h
Calls of active or inactive are those of the source. Rule as the data show it: active = GI50 up to about 1.1 µM and inactive = higher.
Just give me one of these, please: active, inactive

compound	measurement target	cat
OCC(O)C(O)C(C=NNc1ncnc2ccc(Br)cc12)=NNc1ncnc2ccc(Br)cc12 (stereo not drawn)	SK-MEL-2	inactive

Let us examine a further case.
Hi, sorry to bother you, what did the test record for O=C1OC2CCCC[C@@H]2C2C[C@]34CCCCC3[C@@H](C(=O)O4)C12 (stereo partly drawn) ?
inactive

====

tested on: NCI-H460; assay: NCI tumour cell line growth inhibition, 48 h
Active and inactive are the calls of the source. No stated cut-off is given here; in the data, active = GI50 up to about 1.1 µM and inactive = higher.
For each record, write down the corresponding GI50.

Guide cases for GI50, answers given:
>>> print(df.to_string())
                  compound_structure_string  parameter_measured               result
0     COc1ccc(Nc2nc(N)c(C(=O)c3ccco3)s2)cc1                GI50   13.7 µM (inactive)
1                Cc1nc(N)nc(N)c1CCCc1ccccc1                GI50   3.47 µM (inactive)
2                    N=C(N)SCCc1cn2ccccc2n1                GI50  > 100 µM (inactive)
3  CN(C)c1c(Cl)c(=O)oc2c1ccc1nc(-c3ccccc3)sc12                GI50  > 100 µM (inactive)

The following compounds each have a reported value; give each one's GI50.
1. C#CC[C@]12CC(=O)CC[C@H]1CC1(C2)OCCO1
2. Cc1ccc(NC(=O)CCc2nnc(S)[nH]2)cc1

1: > 100 µM (inactive); 2: > 100 µM (inactive)

====

tested on: A498; experiment: NCI tumour cell line growth inhibition, 48 h
Calls of active or inactive are those of the source. No stated cut-off is given here; in the data, active = GI50 up to about 1.1 µM and inactive = higher.
Outcome field: choose from active, inactive

In [3]: df
Out[3]:
                                   compound       cat
0  CN(C)c1c(Cl)c(=O)oc2c1ccc1nc(-c3ccccc3)sc12  inactive
1  O=C(CCN1CCN(c2cccc(Cl)c2)CC1)N1CCc2c([nH]c3ccccc23)C1c1cccnc1 (stereo not given)    active
2  Cc1nn(C(=O)CC(=O)Nc2ccccc2Cl)c(C)c1/N=N/c1ccccc1Cl  inactive
3  CCOC(=O)c1cccc(/N=N/c2ncc(/C=C/C(=O)OC)[nH]2)c1  inactive

Now let's try a different one.
Entry "O=[N+]([O-])c1ccccc1S(=O)(=O)c1ccccc1" : call = ?
inactive

====

Can you tell me GI50 for the items I'm about to list?
system: HCC 2998; test: NCI tumour cell line growth inhibition, 48 h
Calls of active or inactive are those of the source. Cut-off read from the data, not from the text of the source: active = GI50 up to about 1.1 µM and inactive = higher.

The cases that follow already have their GI50 on record.
compound	GI50
COc1ccc(CC2NC(=O)/C=C/CC(C(C)C3OC3c3ccccc3)OC(=O)C(CC(C)C)OC(=O)C(C)CNC2=O)cc1Cl (configuration not stated)	3.07e-05 µM (active)
Cc1nnc(N)nc1/C=C\c1ccc(N(C)C)cc1	3.78 µM (inactive)
COC(=O)C1(C(C)C)CCc2c(OC)ccc(OC)c2C1=O (configuration not stated)	> 100 µM (inactive)
O=C1CC2CCCCC2=C1O (configuration not stated)	> 100 µM (inactive)
COc1ccc2c(c1)C1Oc3ccccc3CC1(O)CO2 (configuration not stated)	> 100 µM (inactive)

Below are 8 compounds. Give each one its GI50.
1. CN(C)C(=S)/N=c1\ssc(=S)n1Cc1ccco1
2. C=C(Cl)CN1c2ccccc2C=Cc2ccccc21
3. COC(=O)C(CCSC)NC(=O)CSc1nnc(COc2ccc(Cl)cc2)n1-c1ccccc1 (configuration not stated)
4. C=CCc1cccc2cc(C(=O)NCc3ccccc3)c(=N)oc12
5. Cc1csc2n(C)c(=O)c3ccccc3[n+]12
6. CSC1(C)CC2C(CC1N1CCCCC1)C2(C)C (configuration not stated)
7. Cc1ccc(S(=O)(=O)NCCCSCCO)cc1
8. COC(=O)C1=CC(O)CCC1c1ccc(OC)cc1 (configuration not stated)

1. 4.61 µM (inactive)
2. 17.6 µM (inactive)
3. 7.52 µM (inactive)
4. 25.1 µM (inactive)
5. > 100 µM (inactive)
6. > 100 µM (inactive)
7. > 100 µM (inactive)
8. > 100 µM (inactive)

====

system: KM-20L2; assay: NCI tumour cell line growth inhibition, 48 h
Activity calls are given as the source filed them. No stated cut-off is given here; in the data, active = GI50 up to about 1.1 µM and inactive = higher.
parameter measured: GI50

Parameters: items (list). Returns: GI50 for each item.
1. COC(=O)[C@]12CC=C3O[C@@H]4OC5(CCCCC5)O[C@@H]4[C@H]3C1C(=O)C=CC2=O (stereo partly specified)
2. CC(Cl)(/C=C/Cl)C(Cl)/C=C/C(Cl)(CCl)CBr (stereo unspecified)
3. Cc1ccc(NC(=O)CCc2nnc(S)[nH]2)cc1
4. Nc1ccccc1C(=O)CCC1C(=O)NC(=S)NC1=O
5. CC(=O)CC[N+](C)(C)C
6. O=c1oc2ccccc2c(O)c1C(C/C(CCN1CCCC1)=N/O)c1ccccc1 (stereo unspecified)

1: 19.7 µM (inactive); 2: 5.22 µM (inactive); 3: 54.8 µM (inactive); 4: > 100 µM (inactive); 5: 25.7 µM (inactive); 6: > 100 µM (inactive)

Could you tell me GI50 for each of these compounds? They are listed below.
1. CCCC(=O)c1ccc(=O)n(C)c1
2. O=C(c1ccc(Cl)cc1)N(C(=S)N1CCN(c2ccccc2)CC1)c1ccccc1
3. CCCCCCCC(=O)OC[C@H](C[As](=O)(O)O)OC(=O)CCCCCCC

["> 100 µM (inactive)", "> 100 µM (inactive)", "16.6 µM (inactive)"]

Could I get GI50 for every one of these entries?
1. CCO[C@@H]1OC(=O)[C@@](C)(C(C)=O)[C@@H]1C
2. COc1cc(/C=C2/C(=O)N(C(=O)c3ccccc3O)N=C2C)ccc1O

["41.4 µM (inactive)", "18.5 µM (inactive)"]

====

test system: U-251; test: NCI tumour cell line growth inhibition, 48 h
Activity calls are given as the source filed them. Cut-off read from the data, not from the text of the source: active = GI50 up to about 1.1 µM and inactive = higher.
Allowed answers: class 1 (active), class 0 (inactive)

// return assay outcome for "CC/C(N)=N\NC(=O)OC(C)(C)C"
class 0

====

system: NCI-H522; assay: NCI tumour cell line growth inhibition, 48 h
Active and inactive are the calls of the source. No stated cut-off is given here; in the data, active = GI50 up to about 1.1 µM and inactive = higher.
Pick from true = active, false = inactive when you respond.

compound	cat
COc1ccc(C2c3cc4c(cc3OC3(OC)COC(=O)C23)OCO4)c(OC)c1 (stereo not given)	false
Oc1ccc(-c2ccccc2)nn1	false
CCOC(=O)Cn1c(C(F)(F)F)nc2nc(Cl)c(Cl)nc21	false

Any idea what this test logged for "O=C(NCCCNCCNC(=O)c1cc(-c2ccccc2)nc2ccccc12)c1cc(-c2ccccc2)nc2ccccc12" ?
false

// param item: O=C1CC2CCCCC2=C1O (stereo not given) ; yields the recorded call
false

Hi, sorry to bother you, what did the test record for CC(C)[Si](OCC/C=C/C1CCC(=O)C1C(O)C1CCCCC1)(C(C)C)C(C)C (stereo not given) ?
false

====

system: SNB-75; test: NCI tumour cell line growth inhibition, 48 h
The source made the active and inactive calls. No stated cut-off is given here; in the data, active = GI50 up to about 1.1 µM and inactive = higher.
Your answer must be one of the following: T for active, F for inactive

Reference set, count: 3
compound	cat
Nc1ncnn2c(C3OC(CO)C(O)C3O)ccc12 (stereo not drawn)	T
CC[C@H](C)[C@H]1NC(=O)[C@@H](NC(=O)[C@@H](CC(C)C)N(C)C(=O)C2CCCN2C(=O)[C@H](C)O)[C@@H](C)OC(=O)[C@H](Cc2ccccc2)N(C)C(=O)[C@@H]2CCCN2C(=O)[C@H](CC(C)C)NC(=O)[C@@H](C)C(=O)[C@H](C(C)C)OC(=O)C[C@@H]1O (stereo partly drawn)	T
CCCCCCCCCCCCn1c(=O)cc(NCCCC)c2cc3c(NCCCC)cc(=O)n(CCCCCCCCCCCC)c3nc21	F

Field: next compound
Called result for CN1C(=O)CCC1(O)C1C=CC=CC1 (stereo not drawn)
F

====

system: SN12C; assay: NCI tumour cell line growth inhibition, 48 h
Calls of active or inactive are those of the source. Rule as the data show it: active = GI50 up to about 1.1 µM and inactive = higher.
Kindly state GI50 for each of the entries shown.

>>> df
                  compound_structure_string  parameter_measured               result
0  Cc1ccc(C(=O)c2[nH]c(NCc3ccccc3)c(C(=S)Nc3ccccc3)c2N)cc1                GI50   14.5 µM (inactive)
1                Cc1nc(N)nc(N)c1CCCc1ccccc1                GI50   3.65 µM (inactive)
2  Cc1ccc(S(=O)(=O)N2CCSCCSCCSCCN(S(=O)(=O)c3ccc(C)cc3)CC2)cc1                GI50  > 100 µM (inactive)
3               NNc1cnn(-c2ccccc2)c(=O)c1Cl                GI50  > 100 µM (inactive)

Take each entry in turn and give its GI50.
1. CC/C(N)=N\NC(=O)OC(C)(C)C
2. Cn1c(=O)c2[nH]c(N=O)nc2n(C)c1=O

1. > 100 µM (inactive)
2. > 100 µM (inactive)
